# System Name: S1P5 (Homo sapiens, UniProt Q9H228)
# Sequence (Q9H228 whole entry, species assumed): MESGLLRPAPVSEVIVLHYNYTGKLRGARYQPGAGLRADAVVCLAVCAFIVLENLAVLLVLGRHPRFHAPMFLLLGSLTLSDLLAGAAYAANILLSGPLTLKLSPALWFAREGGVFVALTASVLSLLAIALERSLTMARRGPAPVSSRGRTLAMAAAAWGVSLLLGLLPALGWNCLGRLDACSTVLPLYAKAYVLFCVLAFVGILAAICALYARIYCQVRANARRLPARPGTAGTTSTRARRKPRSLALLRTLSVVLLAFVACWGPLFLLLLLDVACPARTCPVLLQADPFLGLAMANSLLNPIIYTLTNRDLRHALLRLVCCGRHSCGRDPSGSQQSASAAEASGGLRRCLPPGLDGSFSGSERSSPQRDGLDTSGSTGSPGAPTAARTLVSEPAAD
# Assay Summary: TGFα-shedding assay, S1P5
# Settings: HEK293 cells, ligand 1 hour
Reported Endpoint: EC50

| Mol | Reported Endpoint | Result |
| --- | --- | --- |
| Cc1cc(C(=O)Cn2cc(C(F)(F)F)ccc2=O)c(C)n1Cc1ccccc1 | EC50 | > 10 µM |

###

# System Name: S1P2 (Homo sapiens)
# Construct: expressed in transfected cells; host or cells: HEK293
# Sequence (O95136 whole entry, species assumed): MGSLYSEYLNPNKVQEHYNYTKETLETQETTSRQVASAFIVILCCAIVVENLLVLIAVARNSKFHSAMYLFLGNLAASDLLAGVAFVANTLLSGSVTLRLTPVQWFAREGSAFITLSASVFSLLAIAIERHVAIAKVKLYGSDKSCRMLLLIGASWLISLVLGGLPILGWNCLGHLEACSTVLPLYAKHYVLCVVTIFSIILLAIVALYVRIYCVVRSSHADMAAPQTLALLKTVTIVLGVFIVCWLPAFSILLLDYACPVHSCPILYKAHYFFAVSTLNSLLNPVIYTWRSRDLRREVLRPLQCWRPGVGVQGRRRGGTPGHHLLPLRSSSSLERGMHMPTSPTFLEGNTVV
# Assay Summary: TGFα-shedding assay, S1P2
# Type: cell-based
# Settings: HEK293 cells, ligand 1 hour
Reported Endpoint: EC50 (nM)

| Mol | Reported Endpoint | Recorded Number |
| --- | --- | --- |
| Cc1cc(C(=O)Cn2cc(C(F)(F)F)ccc2=O)c(C)n1Cc1ccccc1 | EC50 | 119 |

###

# System Name: S1P1 (Homo sapiens)
# Sequence (P21453 whole entry, species assumed): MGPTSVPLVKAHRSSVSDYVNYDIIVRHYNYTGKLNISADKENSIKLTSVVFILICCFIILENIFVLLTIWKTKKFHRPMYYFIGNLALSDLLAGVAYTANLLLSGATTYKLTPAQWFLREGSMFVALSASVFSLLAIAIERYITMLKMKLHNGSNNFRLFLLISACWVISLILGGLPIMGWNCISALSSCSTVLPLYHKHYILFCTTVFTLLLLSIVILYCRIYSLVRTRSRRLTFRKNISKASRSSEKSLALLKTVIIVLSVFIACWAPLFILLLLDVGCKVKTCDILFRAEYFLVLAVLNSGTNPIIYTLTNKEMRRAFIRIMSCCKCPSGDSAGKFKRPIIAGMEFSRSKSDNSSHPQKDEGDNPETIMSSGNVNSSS
# Assay Summary: TGFα-shedding assay, S1P1
# Settings: HEK293 cells, ligand 1 hour
pEC50: −log10 of the molar value.
The entries below come with measured pEC50 values attached.
Reported Endpoint: pEC50

| Molecule | Recorded Number |
| --- | --- |
| CCCCCCCCCCCCC/C=C/[C@@H](O)[C@@H](N)COP(=O)(O)O [S1P, sphingosine 1-phosphate] | 6.94 |
| Cc1cc(C(=O)Cn2cc(C(F)(F)F)ccc2=O)c(C)n1Cc1ccccc1 [CYM-5478] | 5.77 |

###

# System Name: S1P4 (Homo sapiens)
# Sequence (O95977 1-384): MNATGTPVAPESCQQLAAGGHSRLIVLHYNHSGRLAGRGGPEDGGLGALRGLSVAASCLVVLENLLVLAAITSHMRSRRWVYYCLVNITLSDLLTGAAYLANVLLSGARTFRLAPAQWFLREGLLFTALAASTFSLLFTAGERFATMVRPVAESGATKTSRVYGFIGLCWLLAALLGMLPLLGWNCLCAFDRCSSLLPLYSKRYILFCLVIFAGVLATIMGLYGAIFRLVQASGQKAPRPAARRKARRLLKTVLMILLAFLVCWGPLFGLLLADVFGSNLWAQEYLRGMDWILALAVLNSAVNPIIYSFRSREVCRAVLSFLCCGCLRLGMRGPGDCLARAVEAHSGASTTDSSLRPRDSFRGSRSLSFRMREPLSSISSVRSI
# Assay Summary: TGFα-shedding assay, S1P4
# Settings: HEK293 cells, ligand 1 hour
pEC50: −log10 of the molar value.

| Compound | Comparator | pEC50 |
| --- | --- | --- |
| CCCCCCCCCCCCC/C=C/[C@@H](O)[C@@H](N)COP(=O)(O)O [S1P, sphingosine 1-phosphate] | = | 6.76 |
| Cc1cc(C(=O)Cn2cc(C(F)(F)F)ccc2=O)c(C)n1Cc1ccccc1 [CYM-5478] | < | 5.00 |

###

# Test system: ROS in C6 cells
# Assay Summary: ROS assay (CellROX) in C6 cells
# Type: cell-based, rat
# Settings: co-administered with cisplatin, CYM-5478 10 μM

| Compound | effect on cisplatin-induced ROS |
| --- | --- |
| CCN(CC)CCCC(C)Nc1nc(C)cc(Nc2ccc3nc(C)cc(N)c3c2)n1 (stereo not shown) [NSC23766] | phenocopied |
| c1ccc2c(c1)[I+]c1ccccc1-2 [DPI, diphenyleneiodonium] | phenocopied |
